Target: T1, mouse TfR ectodomain fused to a mouse IgG1 Fc fragment (mouse, UniProt Q62351 89-763)
T1 construct: extracellular domain; not shown: mouse IgG1 Fc fragment
T1 sequence (Q62351 89-763): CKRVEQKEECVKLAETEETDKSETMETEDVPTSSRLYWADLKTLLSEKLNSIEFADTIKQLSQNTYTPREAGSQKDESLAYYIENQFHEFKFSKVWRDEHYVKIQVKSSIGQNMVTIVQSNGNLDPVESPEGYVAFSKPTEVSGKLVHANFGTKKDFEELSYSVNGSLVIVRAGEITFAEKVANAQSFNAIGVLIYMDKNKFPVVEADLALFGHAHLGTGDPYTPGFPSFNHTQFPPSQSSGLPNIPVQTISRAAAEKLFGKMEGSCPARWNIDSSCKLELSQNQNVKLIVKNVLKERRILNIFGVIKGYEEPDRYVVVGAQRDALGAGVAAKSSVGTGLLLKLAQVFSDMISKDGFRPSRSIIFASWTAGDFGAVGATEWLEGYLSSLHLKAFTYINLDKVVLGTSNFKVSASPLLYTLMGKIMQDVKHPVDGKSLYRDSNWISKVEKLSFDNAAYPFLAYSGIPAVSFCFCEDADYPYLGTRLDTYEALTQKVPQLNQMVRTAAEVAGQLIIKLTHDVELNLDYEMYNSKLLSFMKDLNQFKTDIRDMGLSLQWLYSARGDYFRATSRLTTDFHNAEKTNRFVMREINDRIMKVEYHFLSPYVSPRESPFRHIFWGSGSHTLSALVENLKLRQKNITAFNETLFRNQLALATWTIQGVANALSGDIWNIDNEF
Experiment: SPR, kinetic
Experimental: Binding properties of some VHHs were also evaluated using Surface Plasmon Resonance (SPR) experiments. The human, mouse and rhesus monkey TfR (having respectively GeneBank number NM_003234.2, NM_011638, NC_041755.1) ectodomains were fused to the N-terminal end of a mouse IgG1 Fc fragment and the recombinant proteins were produced and purified in-house. Interaction of VHHs with the receptors was tested using a Biacore T200 (GE Healthcare). […]
Provide the reported log10 Kd of each item.
Please keep in mind that the values are log10 of Kd expressed in nM.

Task item: Quick check: log10 Kd of C5^V29 (VHH) VHH: EVQLVESGGGVVQPGGSLKLSCVASGADFSINFIRWYRQAPGKQREFVAGFTATGHTNYADSMKGRFTISRDNTKNAVYLQIDSLKPEDTAVYYCYMLDKWGQGTQVTVSS ?
Reply: 2.16

Task item: And the next one, VHH A11 (C5^V11) (VHH) VHH: EVQLVESGGGVVQPGGSLKLSCVASGTDFSINYIRWYRQAPGKQREFVAGFTATGNTNYADSMKGRFTISRDNTKNAVYLQIDSLKPEDTAVYYCYMLDKWGQGTQVTVSS ?
Reply: 1.79

Task item: And the next one, VHH B (B8) (VHH) VHH: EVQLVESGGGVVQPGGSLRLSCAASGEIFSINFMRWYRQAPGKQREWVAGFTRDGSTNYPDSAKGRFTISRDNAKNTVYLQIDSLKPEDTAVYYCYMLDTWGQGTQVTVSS ?
Reply: 1.43

Task item: And the next one, B8^V1 (VHH) VHH: EVQLVESGGGVVQPGGSLRLSCAADGEIFSINFMRWYRQAPGKQREWVAGFTRDGSTNYPDSAKGRFTISRDNAKNTVYLQIDSLKPEDTAVYYCYMLDTWGQGTQVTVSS ?
Reply: 3.29

Task item: And the next one, VHH A2 (C5^V2) (VHH) VHH: EVQLVESGGGVVQPGGSLKLSCVASGTAFSINFIRWYRQAPGKQREFVAGFTATGNTNYADSMKGRFTISRDNTKNAVYLQIDSLKPEDTAVYYCYMLDKWGQGTQVTVSS ?
Reply: 2.04

Task item: And the next one, C5^h18 (VHH) VHH: EVQLVESGGGVVQPGGSLKLSCVASGTDFSINFIRWYRQAPGKGLEFVAGFTATGNTNYADSVKGRFTISRDNAKNTLYLQMNSLRPEDTAVYYCYMLDKWGQGTQVTVSS ?
Reply: 2.53

Task item: And the next one, VHH A9 (C5^V9) (VHH) VHH: EVQLVESGGGVVQPGGSLKLSCVASGTDFSINFIRWYRQAPGKQREFVAGFTATGNTNYADSMKGRFTISRDNTKNAVYLQIDSLKPEDTAVYYCYMLDAWGQGTQVTVSS ?
Reply: 1.61

Task item: And the next one, VHH A (C5) (VHH, form with the C-terminal myc-His6 tag (x = 1), since the VHHs were detected with anti-6His or anti-cMyc; the same holds for m12 to m126) VHH: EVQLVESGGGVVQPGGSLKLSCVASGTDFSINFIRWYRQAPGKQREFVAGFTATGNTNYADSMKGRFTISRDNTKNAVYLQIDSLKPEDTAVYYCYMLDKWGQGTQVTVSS ?
Reply: 1.95

Data provenance: patent US20230414780A1
